Measured GI50 on HCT-15 follows.

# count of solved cases: 4
COc1cccc(/C=C2\C(=O)N(C(=O)c3ccc(NC(C)=O)cc3)N=C2C)c1 = > 100 µM
CC1CC[C@@]2(OC1)OC1C[C@H]3[C@@H]4CC=C5CC(OC6OC(CO)C(OC7OC(CO)C(O)C(OC8OCC(O)C(O)C8O)C7OC7OC(CO)C(OC8OC(C)C(OC9OC(C)C(O)C(O)C9O)C(O)C8O)C(O)C7O)C(O)C6O)CCC5(C)[C@H]4CCC3(C)C1[C@@H]2C (stereo partly drawn) = 9.64 µM
Cc1cccc(C)c1/N=N/c1ccc(O)c(CN(C)C)c1 = > 100 µM
ClC1(Cl)C2CCOC21n1cnc2ccccc21 (stereo not drawn) = > 100 µM

Hi, could you look up GI50 for each item in my list?
1. O=c1onc2n1-c1ccc(Cl)cc1C(=S)N1CSCC21 (stereo not drawn)
2. CN(C)C(=N)NC(=S)N(C)C
3. NC(Cc1ccccc1)C(=O)N[C@H]1c2ccsc2/C(=N/O)[C@H]1O (stereo partly drawn)
4. CNC(=O)c1cc(NC(=O)N(CCC#N)CCN(C(=O)N[C@@H](Cc2ccccc2)C(=O)N[C@@H](CC(C)C)C(=O)NC)c2ccccc2)ccc1OC

1: 26.6 µM; 2: > 100 µM; 3: > 100 µM; 4: > 100 µM

The measurements presented in this section are drawn from ChEMBL document CHEMBL1201862.
